Test system: morningglory (Ipomoea coccinea)
procedure.text: Test B pre-/postemergence plant response
Assay type: in vivo
condition.info: Postemergence, 250 g ai/ha; scale 0 to 100 (0 no effect, 100 complete control)
metric.name: Plant response rating, Morningglory

compound=COCCn1c(-c2cccc(C)c2)ncc(C(=O)C2=C(O)CCCC2=O)c1=O observed=100
compound="CCCc1ncc(C(=O)C2=C(O)CCCC2=O)c(=O)n1CC1CCCO1 (stereo not shown)" observed=100
compound=COCCCn1c(-c2cccc(C)c2)ncc(C(=O)C2=C(O)CCCC2=O)c1=O observed=80
compound=CCCCn1c(-c2ccccc2)ncc(C(=O)C2=C(O)CCCC2=O)c1=O observed=100
compound=O=C1CCCC(O)=C1C(=O)c1cnc(-c2ccccc2Br)n(-c2ccccc2)c1=O observed=80
compound="COCC(C)n1c(-c2ccccc2)ncc(C(=O)C2=C(O)CCCC2=O)c1=O (stereo not shown)" observed=100
compound=Cn1c(-c2ccccc2)ncc(C(=O)C2=C(O)CCCC2=O)c1=O observed=85
